Target: T1, CD123 (Homo sapiens (Human), UniProt P26951 19-305, limits assumed)
T1 construct: The CD123 construct used in the ELISA is not described; also called CD123-Signal
T1 sequence: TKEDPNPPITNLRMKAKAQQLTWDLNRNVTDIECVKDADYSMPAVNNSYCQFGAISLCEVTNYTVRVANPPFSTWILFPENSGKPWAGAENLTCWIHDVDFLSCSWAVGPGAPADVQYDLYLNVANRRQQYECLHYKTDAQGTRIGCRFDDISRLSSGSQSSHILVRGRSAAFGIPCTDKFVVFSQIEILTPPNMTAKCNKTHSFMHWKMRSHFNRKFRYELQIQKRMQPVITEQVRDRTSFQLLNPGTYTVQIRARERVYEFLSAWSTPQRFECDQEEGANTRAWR
Experiment: ELISA
Parameters: unit not given here
Would you mind telling me the reported ELISA_avg of each entry?
Give bare numbers.

Solved entries:
Task: Dear colleague, please send me the reported ELISA_avg for D domain of SEQ ID NO: 625 (designed binder) MGSWFEFDDRLEAIFDRLWALGGSEAELAMFEFAIAEFEDALQEYKGKGNPEVEALYEEAVAIDEELYAYRHN when you can.
Result: 4.1

Task: Dear colleague, please send me the reported ELISA_avg for D domain of SEQ ID NO: 614 (designed binder) MGSWYEFSSRLNAIDDRLWALGGSEAELAYFETDIADFESLLQWYKGKGNPEVEALLNEADAIDYELYAYRHN when you can.
Result: 3.8

Task: Dear colleague, please send me the reported ELISA_avg for D domain of SEQ ID NO: 435 (designed binder) MGSWSEFNMRLDAIYERLTALGGSEAELAAFEKEIAAFESELQAYKGKGNPEVEWLRHSAARIRLELQAYRHN when you can.
Result: 13.7

Task: Dear colleague, please send me the reported ELISA_avg for D domain of SEQ ID NO: 464 (designed binder) MGSWSEFYLRLDAIYDRLDALGGSEAELAAFEKEIAAFESELQAYKGKGNPEVEWLRKTAANIREELQAYRHN when you can.
Result: 15.7

Task: Dear colleague, please send me the reported ELISA_avg for D domain of SEQ ID NO: 467 (designed binder) MGSWFYFKDDLADINYMLEALGGSEAELAMFEDDIAGFELTLLKYKGKGNPEVEALRKEAAAIRDELQAYRHN when you can.
Result: 3.7

Now look at this one.
Task: Dear colleague, please send me the reported ELISA_avg for D domain of SEQ ID NO: 491 (designed binder) MGSWDLFKWELAEIKLGLEALGGSEAELAEFEYDIAWFEEDLQDYKGKGNPEVEALRKEAAAIRDELQAYRHN when you can.
Result: 3.4
